Target Desc: class C enzyme AmpC (Enterobacter cloacae)
Sequence (P05364 21-381): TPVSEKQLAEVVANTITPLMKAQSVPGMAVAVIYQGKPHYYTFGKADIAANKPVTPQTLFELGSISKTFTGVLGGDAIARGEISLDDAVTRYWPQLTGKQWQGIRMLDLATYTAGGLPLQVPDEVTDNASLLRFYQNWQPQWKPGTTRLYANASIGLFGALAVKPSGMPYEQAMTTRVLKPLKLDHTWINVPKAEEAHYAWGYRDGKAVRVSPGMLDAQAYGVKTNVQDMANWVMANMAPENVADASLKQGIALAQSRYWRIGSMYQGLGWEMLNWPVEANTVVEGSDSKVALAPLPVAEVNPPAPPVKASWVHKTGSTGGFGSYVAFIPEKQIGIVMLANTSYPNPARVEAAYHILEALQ
Test Method Notes: biochemical
Parameters: species or system Enterobacter cloaca
Condition Summary: enzyme 2.1 nM; 10 minutes preincubation at 25° C.; nitrocefin 50 μg/ml; pH 7.0; read-out: IC50 (nM) Class C AmpC
Structures can show the parent of a compound that is named as a salt.
Documented IC50 across a set of molecules
# number then unit; no other words

Worked examples, 3 molecules total:
Molecule	Obs Value
O=C(O)C1=CS[C@@H]2/C(=C\c3cc4c(s3)CCN(C(=O)Cc3ccccc3)C4)C(=O)N12	7.8 nM
O=C(O)C1=CS[C@@H]2/C(=C\c3cc4n(n3)CCOC4=O)C(=O)N12	3.8 nM
O=C(O)C1=CS[C@@H]2/C(=C\c3cc4n(n3)CCNC4)C(=O)N12 [Example 25, sodium salt]	2.7 nM

Give the measured IC50 for O=C(O)C1=CS[C@@H]2/C(=C\c3cc4c(o3)CCC4)C(=O)N12 [Example 27, sodium salt]
2 nM

All figures here come from patent US7812014B2.
